# tgt: SRC (Homo sapiens)
# Sequence (P12931 whole entry): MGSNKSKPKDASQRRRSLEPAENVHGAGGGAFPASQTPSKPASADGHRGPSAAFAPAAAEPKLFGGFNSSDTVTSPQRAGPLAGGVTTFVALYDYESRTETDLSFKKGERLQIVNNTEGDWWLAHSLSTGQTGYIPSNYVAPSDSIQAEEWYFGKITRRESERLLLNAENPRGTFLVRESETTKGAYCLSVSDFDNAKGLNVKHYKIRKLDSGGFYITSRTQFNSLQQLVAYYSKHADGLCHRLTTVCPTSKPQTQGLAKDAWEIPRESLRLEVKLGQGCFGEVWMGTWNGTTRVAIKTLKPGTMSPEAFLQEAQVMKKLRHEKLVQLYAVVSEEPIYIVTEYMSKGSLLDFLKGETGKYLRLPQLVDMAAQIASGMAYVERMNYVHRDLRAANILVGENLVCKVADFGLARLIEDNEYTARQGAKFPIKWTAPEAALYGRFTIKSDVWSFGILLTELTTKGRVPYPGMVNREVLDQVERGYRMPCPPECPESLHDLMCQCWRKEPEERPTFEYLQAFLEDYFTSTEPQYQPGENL
# protocol description: Inhibition of a panel of kinases, in vitro HotSpot kinase assay: SRC
# Type: biochemical
# measurement parameters: D-compounds panel data; 1 μM ATP
experimental readout: IC50

Recorded results for 5 molecules are shown here.
C[C@@H]1[C@H](NC(=O)c2ccc(C3CC3)cc2)CCCN1c1cnc(C(N)=O)c(Nc2cnn(CC3CCC(F)(F)CC3)c2)n1 | 100 to 1000 nM
C[C@@H]1[C@H](NC(=O)c2ccc(C3CC3)cc2F)CCCN1c1cnc(C(N)=O)c(Nc2cc(CN3CCCCC3)ns2)n1 | 10 to 100 nM
Cc1cc(Nc2nc(N3CCC[C@@H](n4ccc5cc(C6CC6)ccc5c4=O)C3)cnc2C(N)=O)sn1 | > 10000 nM
C[C@@H]1[C@H](NC(=O)c2ccc(C3(C)COC3)cc2)CCCN1c1cnc(C(N)=O)c(Nc2cnn(C)c2)n1 | 10 to 100 nM
CNC(=O)N[C@@H]1CCCN(c2cnc(C(N)=O)c(Nc3cnn(C)c3)n2)[C@@H]1C | 100 to 1000 nM

IC50 in this record for C[C@@H]1[C@H](NC(=O)c2ccc(C(C)(C)C)cc2)CCCN1c1cnc(C(N)=O)c(Nc2cnn(C)c2)n1 : 100 to 1000 nM

What the record says about C[C@@H]1[C@H](NC(=O)c2ccc(C(C)(C)C#N)cc2)CCCN1c1cnc(C(N)=O)c(Nc2ccc(OC3CCN(C)CC3)cc2)n1 : IC50 is 10 to 100 nM

###

# tgt: LCK (Homo sapiens)
# Sequence (P06239 whole entry): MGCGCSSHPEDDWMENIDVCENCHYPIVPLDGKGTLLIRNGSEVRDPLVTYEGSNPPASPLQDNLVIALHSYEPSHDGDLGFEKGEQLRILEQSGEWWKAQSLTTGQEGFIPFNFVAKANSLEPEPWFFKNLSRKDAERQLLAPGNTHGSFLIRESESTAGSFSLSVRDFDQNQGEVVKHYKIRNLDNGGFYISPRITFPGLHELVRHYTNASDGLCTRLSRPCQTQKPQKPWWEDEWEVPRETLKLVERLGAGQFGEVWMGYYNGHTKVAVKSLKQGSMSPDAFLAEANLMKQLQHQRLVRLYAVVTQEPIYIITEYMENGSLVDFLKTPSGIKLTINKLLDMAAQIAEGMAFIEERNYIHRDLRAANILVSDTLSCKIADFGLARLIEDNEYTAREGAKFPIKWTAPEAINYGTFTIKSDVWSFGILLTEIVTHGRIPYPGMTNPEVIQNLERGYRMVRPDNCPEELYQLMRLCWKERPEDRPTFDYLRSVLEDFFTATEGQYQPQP
# protocol description: Inhibition of a panel of kinases, in vitro HotSpot kinase assay: LCK
# Type: biochemical
# measurement parameters: Table 10, Formula A-I; 1 μM ATP; read-out: LCK (IC50)
Structures can show the parent of a compound that is named as a salt.
experimental readout: IC50

NC(=O)c1ncc(N2CCC[C@@H](NC(=O)Nc3cccnc3)C2)nc1Nc1ccc(C2CCN(C3CCCC3)CC2)cc1 [Example A-1] | < 0.1 µM
CN(C)c1ccc(C(=O)N[C@@H]2CCCN(c3cnc(C(N)=O)c(Nc4ccc(C5(C)CCN(C6CC6)CC5)cc4)n3)C2)cc1 [Example A-49] | < 0.1 µM

--- query ---
Input NC(=O)c1ncc(N2CCC[C@@H](NC(=O)N3Cc4ccccc4C3)C2)nc1Nc1ccc(C2CCN(C3CCCC3)CC2)cc1 [Example A-5, hydrochloride] . Output IC50: 0.1 to 1 µM

###

# tgt: UniProt:P52333
# Sequence (P52333 1-1124): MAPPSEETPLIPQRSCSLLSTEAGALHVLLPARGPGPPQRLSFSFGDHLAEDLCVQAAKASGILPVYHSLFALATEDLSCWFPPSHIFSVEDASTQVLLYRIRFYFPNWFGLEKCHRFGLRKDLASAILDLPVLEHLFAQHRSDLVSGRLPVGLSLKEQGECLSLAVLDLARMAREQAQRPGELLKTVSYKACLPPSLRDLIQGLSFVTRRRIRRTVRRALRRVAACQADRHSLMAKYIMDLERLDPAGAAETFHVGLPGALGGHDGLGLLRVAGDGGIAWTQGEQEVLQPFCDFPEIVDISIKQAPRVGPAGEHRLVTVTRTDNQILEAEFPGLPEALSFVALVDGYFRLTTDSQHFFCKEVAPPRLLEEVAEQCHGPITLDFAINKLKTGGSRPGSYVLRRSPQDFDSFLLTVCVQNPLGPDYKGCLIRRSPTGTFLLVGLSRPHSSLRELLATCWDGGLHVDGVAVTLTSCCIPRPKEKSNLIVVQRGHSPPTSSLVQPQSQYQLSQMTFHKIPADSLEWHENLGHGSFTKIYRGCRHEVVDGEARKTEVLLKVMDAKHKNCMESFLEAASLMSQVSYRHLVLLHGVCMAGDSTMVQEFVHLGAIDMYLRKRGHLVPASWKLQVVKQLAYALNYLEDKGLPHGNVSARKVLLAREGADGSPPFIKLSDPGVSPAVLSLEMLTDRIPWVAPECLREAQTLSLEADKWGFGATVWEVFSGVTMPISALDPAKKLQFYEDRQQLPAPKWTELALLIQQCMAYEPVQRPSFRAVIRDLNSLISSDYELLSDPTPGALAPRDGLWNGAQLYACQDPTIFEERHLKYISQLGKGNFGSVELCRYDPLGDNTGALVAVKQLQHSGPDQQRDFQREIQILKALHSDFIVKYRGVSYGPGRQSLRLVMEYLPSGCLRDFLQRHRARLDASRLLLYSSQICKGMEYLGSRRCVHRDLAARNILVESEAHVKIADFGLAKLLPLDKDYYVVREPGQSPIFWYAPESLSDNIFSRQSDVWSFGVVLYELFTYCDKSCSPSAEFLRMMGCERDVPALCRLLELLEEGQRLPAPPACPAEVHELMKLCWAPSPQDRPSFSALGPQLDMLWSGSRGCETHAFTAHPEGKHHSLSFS
# protocol description: Inhibition of a panel of kinases, in vitro HotSpot kinase assay: JAK3
# Format: biochemical
# measurement parameters: Table 13, A compounds; 1 μM ATP; read-out: IC50 JAK3
Entries and their IC50

Solved cases (3 shown):
C[C@@H]1[C@H](NC(=O)c2ccc(C3CC3)cc2F)CCCN1c1cnc(C(N)=O)c(Nc2ccc(C(=O)N3CCN(C)CC3)cc2)n1 | 100 to 1000 nM
Cc1cc(Nc2nc(N3CCC[C@@H](n4ccc5cc(C6CC6)ccc5c4=O)C3)cnc2C(N)=O)sn1 | > 10000 nM
CN1CCN(C(=O)c2ccc(Nc3nc(N4CCC[C@@H](n5ccc6cc(C7CC7)ccc6c5=O)C4)cnc3C(N)=O)cc2)CC1 | 100 to 1000 nM

// field: IC50; key: C[C@@H]1[C@H](NC(=O)c2ccc(C3CC3)cc2F)CCCN1c1cnc(C(N)=O)c(Nc2cnn(C)c2)c1 ; value = 1000 to 10000 nM

Value of measured IC50 for the entry C[C@@H]1[C@H](NC(=O)N(C)C)CCCN1c1cnc(C(N)=O)c(Nc2ccc(C(=O)N3CCN(C)CC3)cc2)n1 : 1000 to 10000 nM

Recorded IC50 (compound C[C@@H]1[C@H](NC(=O)c2ccc(C3CC3)c(Cl)c2)CCCN1c1cnc(C(N)=O)c(Nc2ccc(N3CCN(C)CC3)cc2)n1 ): 1000 to 10000 nM

###

Below, each of the compounds is paired with its reported IC50 value.
# tgt: BTK-WT (Homo sapiens, UniProt Q06187)
# Construct: purified from insect cells as a full-length construct containing an N-terminal 6X-His tag; His6 (N); made in house; host or cells: insect cells (baculovirus Sf21 in Method B)
# Sequence (Q06187 whole entry): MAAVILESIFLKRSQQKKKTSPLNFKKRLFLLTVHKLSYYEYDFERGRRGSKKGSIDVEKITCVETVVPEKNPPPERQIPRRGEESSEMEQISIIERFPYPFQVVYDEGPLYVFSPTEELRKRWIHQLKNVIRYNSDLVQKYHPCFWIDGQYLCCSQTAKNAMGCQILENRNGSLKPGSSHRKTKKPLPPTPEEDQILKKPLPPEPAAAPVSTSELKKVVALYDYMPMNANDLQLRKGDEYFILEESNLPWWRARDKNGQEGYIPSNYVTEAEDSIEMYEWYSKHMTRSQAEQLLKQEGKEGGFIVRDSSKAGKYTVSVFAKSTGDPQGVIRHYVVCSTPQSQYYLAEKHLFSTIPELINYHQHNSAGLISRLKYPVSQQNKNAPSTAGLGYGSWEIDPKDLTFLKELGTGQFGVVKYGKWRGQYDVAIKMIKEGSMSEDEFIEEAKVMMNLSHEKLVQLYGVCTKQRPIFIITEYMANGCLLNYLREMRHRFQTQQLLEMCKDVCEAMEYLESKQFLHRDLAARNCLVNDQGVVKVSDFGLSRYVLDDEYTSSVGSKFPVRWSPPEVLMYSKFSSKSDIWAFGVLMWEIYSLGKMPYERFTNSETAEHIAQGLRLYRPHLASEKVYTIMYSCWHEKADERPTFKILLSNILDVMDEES
# protocol description: Btk in vitro inhibitory activity (one of Method A TR-FRET, Method B electrophoretic mobility shift, Method C radiometric filter binding)
# Type: biochemical
# measurement parameters: E compounds, Table 17; read-out: IC50 BTK-WT

C=CC(=O)N1CCC[C@H](Nc2nnc(C(N)=O)c(Nc3ccc(-c4ncco4)cc3)n2)C1 | ≤ 0.01 µM
C=CC(=O)N1CCC[C@@H](Nc2nnc(C(N)=O)c(Nc3cccc(-n4nccn4)c3)n2)C1 | ≤ 0.01 µM
C=CC(=O)N1CCC[C@@H](Nc2nnc(C(N)=O)c(Nc3cc(F)cc(Cl)c3)n2)C1 | ≤ 0.01 µM
C=CC(=O)N1CC[C@@H](N(C)c2cnc(C(N)=O)c(Nc3cnn(CCOC)c3)n2)C1 | ≤ 0.01 µM
Cn1cc(Nc2nc(N3CCC4CCN(C(=O)c5ccc(C6CC6)cc5)C4C3)cnc2C(N)=O)cn1 (centres unmarked) | 0.1 to 1 µM
C=CC(=O)N1CC[C@@H](N(C)c2cnc(C(N)=O)c(Nc3ccc(-c4ncccn4)cc3)n2)C1 | ≤ 0.01 µM
C[C@@H]1[C@H](NC(=O)c2ccc(C(=O)N(C)C)cc2)CCCN1c1cnc(C(N)=O)c(Nc2cnn(C)c2)n1 | ≤ 0.01 µM
C[C@@H]1[C@H](NC(=O)c2cccc(C(C)(C)O)c2)CCCN1c1cnc(C(N)=O)c(Nc2cnn(C)c2)n1 | ≤ 0.01 µM
C=CC(=O)N1CCC[C@@H](Nc2cnc(C(N)=O)c(Nc3ccc(C4(C)CCN(C5CCCC5)CC4)cc3)n2)[C@H]1C | ≤ 0.01 µM
Cn1cc(Nc2nc(N3CCCC(C)(NC(=O)c4ccc(C5CC5)cc4)C3)cnc2C(N)=O)cn1 (centres unmarked) | 0.1 to 1 µM

Now for the compound whose IC50 we want.
Summary line: C[C@@H]1CCN(c2cnc(C(N)=O)c(Nc3cnn(C)c3)n2)C[C@@H]1NC(=O)c1ccc(C2CC2)cc1 , BTK-WT (Homo sapiens, UniProt Q06187), reported IC50 = 0.1 to 1 µM

###

# tgt: ITK (Homo sapiens, UniProt Q08881)
# Sequence (Q08881 whole entry): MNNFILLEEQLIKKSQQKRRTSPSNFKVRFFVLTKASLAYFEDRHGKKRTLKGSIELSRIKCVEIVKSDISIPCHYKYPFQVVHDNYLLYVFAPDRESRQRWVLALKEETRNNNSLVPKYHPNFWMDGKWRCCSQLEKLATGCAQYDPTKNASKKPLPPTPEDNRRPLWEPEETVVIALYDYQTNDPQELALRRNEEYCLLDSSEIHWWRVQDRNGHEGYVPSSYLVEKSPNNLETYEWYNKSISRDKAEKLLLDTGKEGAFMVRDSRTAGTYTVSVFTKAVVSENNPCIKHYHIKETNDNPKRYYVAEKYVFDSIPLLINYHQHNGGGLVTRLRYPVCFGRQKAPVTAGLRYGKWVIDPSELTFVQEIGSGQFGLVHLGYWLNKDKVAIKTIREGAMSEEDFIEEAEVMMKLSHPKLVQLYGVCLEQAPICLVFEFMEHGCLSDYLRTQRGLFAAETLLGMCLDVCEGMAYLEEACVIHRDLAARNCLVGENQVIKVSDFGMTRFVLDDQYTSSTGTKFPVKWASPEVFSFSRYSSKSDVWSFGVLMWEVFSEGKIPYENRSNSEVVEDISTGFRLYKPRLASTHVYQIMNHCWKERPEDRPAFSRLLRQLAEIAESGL
# protocol description: Inhibition of a panel of kinases, in vitro HotSpot kinase assay: ITK
# Format: biochemical
# measurement parameters: Table 15, C compounds; 1 μM ATP
pIC50: −log10 of the molar value.
experimental readout: pIC50

// pIC50 value for C=CC(=O)N1CCC[C@@H](Nc2nnc(C(N)=O)c(Nc3ccc(-c4nccs4)cc3)n2)C1 [Example C-77] : 7.00 to 8.00

So for C=CC(=O)N1CCC[C@@H](Nc2nnc(C(N)=O)c(Nc3ccc4ncccc4c3)n2)C1 [Example C-82] , the logged pIC50 turned out to be ≥ 8.00

Recorded result, C=CC(=O)N1CC[C@@H](N(C)c2cnc(C(N)=O)c(Nc3ccc(C4(C)CCN(C5CC5)CC4)cc3)n2)C1 [Example C-65] , pIC50: ≥ 8.00

pIC50 measured on C=CC(=O)N1CCC[C@@H](N(C(=O)C=C)c2nnc(C(N)=O)c(Nc3ccc(C4CC4)cc3)n2)C1 [Example C-49] = 5.00 to 6.00
